Test system: VCaP cells
Protocol: Cellular potency (IC50) in VCaP cells
Format: cell-based
Stated Conditions: Homo sapiens, VCaP

[
  {
    "Compound": "C[C@H]1CC2(CCN(c3ccc(CN4CC(C5CCN(c6ccc7c(c6)C(=O)N(C6CCC(=O)NC6=O)C7=O)CC5)C4)cn3)CC2)CN1c1ccc(C#N)c(Cl)c1 (stereo partly drawn)",
    "IC50": "< 0.1 µM"
  },
  {
    "Compound": "C[C@H]1CC2(CCN(c3ccc(N4CCN(C5CN(c6ccc7c(c6)C(=O)N(C6CCC(=O)NC6=O)C7=O)C5)CC4)cn3)CC2)CN1c1ccc(C#N)c(Cl)c1 (stereo partly drawn)",
    "IC50": "< 0.01 µM"
  },
  {
    "Compound": "C[C@H]1CC2(CCN(c3ccc(CN4CCN(C5CN(c6cc7c(cc6F)C(=O)N(C6CCC(=O)NC6=O)C7=O)C5)CC4)nn3)CC2)CN1c1ccc(C#N)c(Cl)c1 (stereo partly drawn)",
    "IC50": "< 0.01 µM"
  },
  {
    "Compound": "C[C@H]1CC2(CCN(c3ccc(N4CCC(N(C)C5CN(c6ccc7c(c6)C(=O)N(C6CCC(=O)NC6=O)C7=O)C5)CC4)cn3)CC2)CN1c1ccc(C#N)c(Cl)c1 (stereo partly drawn)",
    "IC50": "< 0.01 µM"
  },
  {
    "Compound": "C[C@H]1CC2(CCN(c3ccc(N4CCN(CC5CN(c6ccc7c(c6)C(=O)N(C6CCC(=O)NC6=O)C7=O)C5)CC4)cn3)CC2)CN1c1ccc(C#N)c(Cl)c1 (stereo partly drawn)",
    "IC50": "< 0.01 µM"
  },
  {
    "Compound": "C[C@H]1CC2(CCN(c3ccc(CN4CCN(C5CN(c6ccc7c(c6)C(=O)N(C6CCC(=O)NC6=O)C7=O)C5)CC4)nn3)CC2)CN1c1ccc(C#N)c(Cl)c1 (stereo partly drawn)",
    "IC50": "< 0.1 µM"
  },
  {
    "Compound": "C[C@H]1CC2(CCN(c3ccc(CN4CCC(N5Cc6cc7c(cc6C5)C(=O)N(C5CCC(=O)NC5=O)C7=O)CC4)cc3)CC2)CN1c1ccc(C#N)c(Cl)c1 (stereo partly drawn)",
    "IC50": "< 0.1 µM"
  },
  {
    "Compound": "C[C@H]1CC2(CCN(c3ccc(N4CCN(C5CN(c6ccc7c(c6)C(=O)N(C6CCC(=O)NC6=O)C7=O)C5)CC4)cc3F)CC2)CN1c1ccc(C#N)c(Cl)c1 (stereo partly drawn)",
    "IC50": "< 0.01 µM"
  },
  {
    "Compound": "C[C@H]1CC2(CCN(c3ccc(C4CCN(CC5CN(c6ccc7c(c6)C(=O)N(C6CCC(=O)NC6=O)C7=O)C5)CC4)cn3)CC2)CN1c1ccc(C#N)c(Cl)c1 (stereo partly drawn)",
    "IC50": "< 0.01 µM"
  },
  {
    "Compound": "C[C@H]1CC2(CCN(c3ncc(C(=O)N4CCC(N5Cc6cc7c(cc6C5)C(=O)N(C5CCC(=O)NC5=O)C7=O)CC4)s3)CC2)CN1c1ccc(C#N)c(Cl)c1 (stereo partly drawn)",
    "IC50": "< 0.1 µM"
  },
  {
    "Compound": "C[C@H]1CC2(CCN(c3ccc(C4CCN(CC5CN(c6ccc7c(c6)C(=O)N(C6CCC(=O)NC6=O)C7=O)C5)CC4)nc3)CC2)CN1c1ccc(C#N)c(Cl)c1 (stereo partly drawn)",
    "IC50": "< 0.01 µM"
  },
  {
    "Compound": "C[C@H]1CC2(CCN(c3ccc(C(=O)C4CCN(CC(=O)N5Cc6cc7c(cc6C5)C(=O)N(C5CCC(=O)NC5=O)C7=O)CC4)cc3)CC2)CN1c1ccc(C#N)c(Cl)c1 (stereo partly drawn)",
    "IC50": "< 0.1 µM"
  },
  {
    "Compound": "C[C@H]1CC2(CCN(c3ccc(CC4CCN(CC5CCN(c6ccc7c(c6)C(=O)N(C6CCC(=O)NC6=O)C7=O)CC5)CC4)cc3)CC2)CN1c1ccc(C#N)c(Cl)c1 (stereo partly drawn)",
    "IC50": "< 0.01 µM"
  },
  {
    "Compound": "C[C@H]1CC2(CCN(c3ccc(CC4CCN(C5CN(c6ccc7c(c6)C(=O)N(C6CCC(=O)NC6=O)C7=O)C5)CC4)nn3)CC2)CN1c1ccc(C#N)c(Cl)c1 (stereo partly drawn)",
    "IC50": "< 0.01 µM"
  },
  {
    "Compound": "C[C@H]1CC2(CCN(c3ccc(N4CCC(N(C)C5CN(c6ccc7c(c6)C(=O)N(C6CCC(=O)NC6=O)C7=O)C5)CC4)cc3)CC2)CN1c1ccc(C#N)c(Cl)c1 (stereo partly drawn)",
    "IC50": "< 0.01 µM"
  },
  {
    "Compound": "C[C@H]1CC2(CCN(c3ccc(OC4CCN(C5CN(c6cc7c(cc6F)C(=O)N(C6CCC(=O)NC6=O)C7=O)C5)CC4)cn3)CC2)CN1c1ccc(C#N)c(Cl)c1 (stereo partly drawn)",
    "IC50": "< 0.01 µM"
  },
  {
    "Compound": "C[C@H]1CC2(CCN(c3ccc(CN4CCC(N5CCN(c6ccc7c(c6)C(=O)N(C6CCC(=O)NC6=O)C7=O)CC5)CC4)cn3)CC2)CN1c1ccc(C#N)c(Cl)c1 (stereo partly drawn)",
    "IC50": "< 0.01 µM"
  },
  {
    "Compound": "C[C@H]1CC2(CCN(c3ccc(N4CCC(N(C)C5CN(c6ccc7c(c6)C(=O)N(C6CCC(=O)NC6=O)C7=O)C5)CC4)nc3)CC2)CN1c1ccc(C#N)c(Cl)c1 (stereo partly drawn)",
    "IC50": "< 0.1 µM"
  },
  {
    "Compound": "C[C@H]1CC2(CCN(c3ccc(N4CCN(CC5CCN(c6ccc7c(c6)C(=O)N(C6CCC(=O)NC6=O)C7=O)CC5)CC4)nn3)CC2)CN1c1ccc(C#N)c(Cl)c1 (stereo partly drawn)",
    "IC50": "< 0.01 µM"
  },
  {
    "Compound": "C[C@H]1CC2(CCN(c3ccc(S(=O)(=O)N4CCN(C5CN(c6ccc7c(c6)C(=O)N(C6CCC(=O)NC6=O)C7=O)C5)CC4)cc3)CC2)CN1c1ccc(C#N)c(Cl)c1 (stereo partly drawn)",
    "IC50": "< 0.01 µM"
  },
  {
    "Compound": "C[C@H]1CC2(CCN(c3ccc(OC4CCN(C5CN(c6cc7c(cc6F)C(=O)N(C6CCC(=O)NC6=O)C7=O)C5)CC4)nc3)CC2)CN1c1ccc(C#N)c(Cl)c1 (stereo partly drawn)",
    "IC50": "< 0.01 µM"
  }
]
